This listing pairs molecules with measured VIM-2 percentage inhibition.
target: VIM-2 (Pseudomonas aeruginosa, UniProt Q5U7L7); experiment: biochemical; conditions: 50 μM compound, 5 nM MBL, 10 μM nitrocefin, 30 mins
Answer with a number only, understood to be in %.

Answered cases to consult:
                    molecule  measurement_units  measurement
0            Nc1cccc2cccnc12                  %           43
1    O=C(O)c1cnc2c(O)cccc2c1                  %           91
2  O=C1[C@@H](c2ccccc2)SCN1O                  %           33

Here is the next item to consider.
Look up VIM-2 percentage inhibition for this molecule: Oc1cccc2cccnc12 [Compound 31, 8-Hydroxyquinoline]
98
